Test system: FGF2-induced angiogenesis in chick chorioalloantoic membranes
Assay: Neovascularization in the Chick Chorioalloantoic Membrane (CAM), FGF2-stimulated CAM Model
Format: in vivo
Details: FGF2 (1.0 ug/ml) + analog, CAM branch points (Table 3)
% inhibition ± SEM overview
readout-kind: % inhibition ± SEM (%)

* CS(=O)(=O)c1ccccc1 [Example 5] | 37
* O=S1(=O)CC2(C1)CS(=O)(=O)C2 [Example 13] | 24
* C[Se](=O)c1ccccc1 (stereo not shown) [Example 18] | 23.8
* CC[Se](=O)(=O)CC [Example 17] | 40

* * *

Tested on: endothelial cells
Assay: Inhibition of Endothelial Cell Tube Formation (Matrigel, FGF2-stimulated)
Format: cell-based, Human
Details: FGF2 + analog; all compounds tested at 3 μM; n = 3
readout-kind: Length(mm) ± SEM

• CS(=O)(=O)c1ccccc1 [Example 5] = 28.81
• O=S1(=O)CC=CC1 [Example 4] = 25.25
• CC[Se](=O)(=O)CC [Example 17] = 30.98
• CS(=O)(=O)CS(C)(=O)=O [Example 12] = 31.47
• O=[Se](=O)(c1ccccc1)c1ccccc1 [Example 14] = 31.91
• C[Se](=O)(=O)c1ccccc1 [Example 16] = 28.78
• O=S1(=O)CCCC1 [Example 2] = 24.03
• CSCS(C)(=O)=O [Example 6] = 22.91
• O=S1(=O)CC2(C1)CS(=O)(=O)C2 [Example 13] = 34.61

* * *

Tested on: endothelial cells
Assay: Inhibition of Endothelial Cell Tube Formation (Matrigel, FGF2-stimulated)
Assay type: cell-based, Human
Settings: Homo sapiens, Endothelial cell; FGF2 + analog; all compounds tested at 3 μM; n = 3; read-out: Man % Inhibition +/− SD
readout-kind: inhibition at 3 µM (%)

- C[Se](=O)c1ccccc1 (stereo not shown) [Example 18]: 48.5
- CS(=O)(=O)c1ccccc1 [Example 5]: 50.5
- O=[Se](=O)(c1ccccc1)c1ccccc1 [Example 14]: 40.1
- O=S1(=O)CC2(C1)CS(=O)(=O)C2 [Example 13]: 31
- O=S1(=O)C=CC1 [Example 1]: 77.9
- CS(=O)(=O)C(Cl)(Cl)Cl [Example 9]: 73.5
- O=S(=O)(c1ccccc1)c1ccccc1 [Example 15]: 65.6
- O=C(O)C[Se](=O)(=O)CC(=O)O [Example 20]: 62.9
- CCCCS(=O)(=O)CCCC [Example 3]: 61.9
- O=S1(=O)CC=CC1 [Example 4]: 62.5
- CC[Se](=O)(=O)CC [Example 17]: 38.6
- CSCS(C)(=O)=O [Example 6]: 70.3
- C[Se](=O)(=O)c1ccccc1 [Example 16]: 46.5

* * *

inhibition at 10 µM overview
Test system: FGF2-induced angiogenesis in chick chorioalloantoic membranes
Experiment: Neovascularization in the Chick Chorioalloantoic Membrane (CAM), FGF2-stimulated CAM Model
Type: in vivo
Details: Gallus gallus; FGF2 + analog, 10 uM (Table 4); read-out: % inhibition ± SEM Branch point in CAM
readout-kind: inhibition at 10 µM (%)

* O=C(O)C[Se](=O)(=O)CC(=O)O [Example 20] | 36.3
* CS(=O)(=O)C(Cl)(Cl)Cl [Example 9] | 51
* C[Se](=O)(=O)c1ccccc1 [Example 16] | 23.8
